Target: Aβ fibrils (Homo sapiens, UniProt P05067)
Sequence (P05067 672-713 limits assumed): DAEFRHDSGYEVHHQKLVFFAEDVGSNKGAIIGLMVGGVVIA
Test: ThT competitive assay for Aβ fibrils (Table 2)
Assay type: binding
Design: made in house; host or cells: E. coli
Conditions: average; read-out: Ki (nM) Aβ (avg)
Please respond with reported Ki for every item in the list.
Answers are plain numbers, in nM.

These solved cases illustrate the format of a correct answer.
COc1ccc(/C=C/c2ccco2)cc1 [TZ-34-24]: 888
COc1ccc(/C=C/c2ccc(-c3cnc(C)s3)s2)cc1 [TZ-34-43]: 320
COc1ccc2nc(/C=C/c3ccnc(OC)c3)ccc2c1 [TZ-36-28-2T]: 268

Req: Could you share what Ki was measured for COc1ccc(/C=C/c2cccs2)cc1 [TZ-34-26] , tested on Aβ fibrils (Homo sapiens, UniProt P05067)?
Resp: 2500

###

Biological target: α-synuclein fibrils (Homo sapiens, UniProt P37840)
Construct: made in house; host or cells: E. coli BL21(DE3)RIL
Test: ThT competitive assay for α-synuclein fibrils (Table 1)
Type: binding
Conditions: average; read-out: Ki (nM) α-syn (avg)
Answer each item with its documented Ki.
Answers are plain numbers, in nM.

COc1cc(/C=C/c2ccc3cc(O)ccc3n2)ccn1: 127

// for each compound below, give its Ki
1. COc1ccc(C(=O)C2CCN(C(=O)COC(=O)c3ccc(C(C)(C)C)cc3)CC2)cc1
2. COc1ccc2ccc(/C=C/c3cnccn3)nc2c1

Resp:
5090
3180

Dear colleague, could you send me Ki for each of the items below? Thanks.
1. COc1cccc2nc(/C=C/c3ccncc3)ccc12
2. COc1ccc(/C=C/c2cc3ccccc3s2)cc1
3. COc1ccc2nc(/C=C/c3ccnc(F)c3)ccc2c1
4. COc1ccc(/C=C/c2ccc(CO)s2)cc1
5. COC(=O)C(Cc1ccc(O)cc1)NC(=O)c1ccc(/C=C/c2ccncc2)cc1 (stereo not shown)
6. Ic1ccc(/C=C/c2cccs2)cc1
7. COc1ccc2nc(/C=C/c3cnccn3)ccc2c1

Resp:
96.3
884
434
108
523
80
36.4

###

Field: Biodistribution: Kidney. Provide a value for each of the compounds that follow.
Assay: Biodistribution in male Balb/C mice
Format: in vivo
Details: 5 min post injection, tail vein; mean ± SD, n = 4
Numbers only, in % ID/g.

COc1ccc(NC(=O)c2ccc(/C=C/c3ccncc3)cc2)cc1 [[^11C]TZ-20-83]: 17.55
O=C(Nc1ccc(OCCC[18F])cc1)c1ccc(/C=C/c2ccncc2)cc1 [[^18F]TZ-23-92]: 11.17
COC(=O)c1ccc(/C=C/c2ccncc2)cc1 [[^11C]TZ-20-35]: 4.73

Please look at the following compound next.
Req: Looking for the measured Biodistribution: Kidney of O=C(Nc1ccc(OCC[18F])cc1)c1ccc(/C=C/c2ccncc2)cc1 [[^18F]TZ-23-88] , can you help?
Resp: 35.67

###

Can you tell me Biodistribution: Muscle for the items I'm about to list?
Experiment: Biodistribution in male Balb/C mice
Assay type: in vivo
Conditions: 60 min post injection, tail vein; mean ± SD, n = 4
Numbers only, in % ID/g.

Some compounds with known Biodistribution: Muscle results, for comparison:
O=C(Nc1ccc(OCCC[18F])cc1)c1ccc(/C=C/c2ccncc2)cc1 [[^18F]TZ-23-92]: 0.55
COc1ccc(NC(=O)c2ccc(/C=C/c3ccncc3)cc2)cc1 [[^11C]TZ-20-83]: 0.92
COC(=O)c1ccc(/C=C/c2ccncc2)cc1 [[^11C]TZ-20-35]: 1.18

The record that follows has no Biodistribution: Muscle shown yet.
Req: Would you mind telling me what Biodistribution: Muscle value was observed for O=C(Nc1ccc(OCC[18F])cc1)c1ccc(/C=C/c2ccncc2)cc1 [[^18F]TZ-23-88] ?
Resp: 0.75
